Source listed as PubChem BioAssay (NCI).

System: NCI/ADR-RES ovarian
Assay: NCI-60 one-dose screen, 48 h (100 = growth as untreated, 0 = no growth, -100 = all killed)
Settings: 10 µM unless noted
Description: Growth inhibition of the NCI/ADR-RES human […] tumor cell line is measured as a screen for anti-cancer activity. Cells are grown in 96 well plates and exposed to the test compound for 48 hours. Compounds are tested at a single concentration, which is 10^-5 M for most compounds. The reported endpoint is percent growth (GI% or GIPRCNT), where numbers from 0 - 100% represent growth inhibition, and numbers from -100% - 0 represent cell death. For example, a value of 40 represents 60% growth inhibition. […]
About 83,000 compounds went through this panel and 20% of them were active in at least one assay; those are over-represented in the sample as a whole.
measured-attribute: growth (%)

molecule	measured-attribute	observed-value
Nc1c(C(=O)Nc2cccc(Cl)c2Cl)sc2nc3c(cc12)C(=O)CCC3	growth	73.4
O=C(CNc1c(Cl)cccc1Cl)Nc1ccc(-c2nc3ccccc3s2)cc1	growth	64
CCOC(=O)c1cc(/C(=N\O)c2cc(OC)c(OC)c(OC)c2)n2c(C)cccc12	growth	29.3
Cc1cc2c(c(=O)o1)C(c1ccc(OC(=O)N3CCOCC3)cc1)C(C#N)=C(N)O2 (stereo not given)	growth	105
CCCCC(N)(C(=O)O)C1CCCC1 (stereo not given)	growth	97.4
COc1ccc(C2CC(c3cccs3)=NN2c2ccc(S(=O)(=O)NC(=O)Nc3ccc(C)cc3)cc2)cc1 (stereo not given)	growth	103
CCN1C(=O)N(CC)C2C1NN=c1s/c(=C3\C(=O)N(C4CCCC4)c4ccccc43)c(=O)n12 (stereo not given)	growth	-22.8
CC1(C)OC2COC3(C(=O)O)OC(C)(C)OC3C2O1 (stereo not given)	growth	101
O=C(CCl)NCCNc1nccc(Nc2ccc(S(=O)(=O)Nc3ccccn3)cc2)n1	growth	46.5
Oc1ccc(Cl)cc1-c1cc(-c2ccc(Cl)cc2)n[nH]1	growth	65.1
CC1CCN(C(=O)CSc2nc3sc4c(c3c(=O)[nH]2)CCCC4)CC1	growth	109
CCn1cc(C(=O)O)c(=O)c2cc(F)c(N3CCN(S(=O)(=O)c4ccc(OC)c(OC)c4)CC3)cc21	growth	107
C=C1C(=O)O[C@H]2[C@H]1CC/C(COC(=O)NCc1ccc(OC)cc1)=C\CC[C@@]1(C)O[C@@H]21	growth	86.9
O=C1Nc2cc(Cl)ccc2/C1=C/c1ccc(N2CCOCC2)s1	growth	99.8
COc1ccc(-c2nc3sccn3c2-c2ccnc(NCCCNS(=O)(=O)c3ccc(C)cc3)n2)cc1	growth	20.8
CCN1C(=S)N(CC)C2Nn3c(s/c(=C4\C(=O)N(C)c5ccccc54)c3=O)=NC21 (stereo not given)	growth	6.63
O=C(Nc1ccc(Br)c(Cl)c1)c1cc(F)ccc1O	growth	6.11
CCOC(=O)c1ccccc1NC(c1ccccc1)c1ccc2cccnc2c1O (stereo not given)	growth	11.9
COc1ccc(C2=CC(c3ccc(Oc4ccnc5cc(Cl)ccc45)c(OC)c3)c3c(nc(OC)[nH]c3=O)N2)cc1 (stereo not given)	growth	71.1
Cc1ccc(Cn2c(-c3cccs3)nc3ccccc32)cc1	growth	85.6

----------
System: OVCAR-3 ovarian
Test: NCI-60 one-dose screen, 48 h (100 = growth as untreated, 0 = no growth, -100 = all killed)
Details: 10 µM unless noted
Compounds without any hit were thinned out: in the full panel of roughly 83,000, 20% have a hit.
Below, each of the molecules is paired with its reported growth value.
measured-attribute: growth (%)

molecule	study-system	observed-value
Cc1ccc(S(=O)(=O)OC2COCOC2C(OS(=O)(=O)c2ccc(C)cc2)C2OCOCC2OS(=O)(=O)c2ccc(C)cc2)cc1 (centres undefined)	OVCAR-3 ovarian	110
COC(=O)CCCCN=Cc1c(O)c(O)c(C(C)C)c2cc(C)c(-c3c(C)cc4c(C(C)C)c(O)c(O)c(C=NCCCCC(=O)OC)c4c3O)c(O)c12	OVCAR-3 ovarian	14.3
CCN(CC)P(=O)(N(CC)CC)N(CCCSC/C=C(\C)CC/C=C(\C)CCC=C(C)C)CCCN1CCN(C)CC1	OVCAR-3 ovarian	104
CCCC1OC(c2ccc(C(C)C)cc2)OCC1CC (centres undefined)	OVCAR-3 ovarian	107
Cc1cc2c(C(C)C)c(O)c(O)c(C=NCCCCC(=O)O)c2c(O)c1-c1c(C)cc2c(C(C)C)c(O)c(O)c(C=NCCCCC(=O)O)c2c1O	OVCAR-3 ovarian	45.4
COc1ccc(C2=NN(c3ccc(S(N)(=O)=O)cc3)C(c3cn(-c4ccccc4)nc3-c3ccc(Cl)cc3)C2)cc1 (centres undefined)	OVCAR-3 ovarian	92.4
O=C(O)c1ccc(-n2c(=O)c3ccccc3c3ccccc3c2=O)cc1	OVCAR-3 ovarian	111
COc1ncc(-c2ccc3ncnc(Nc4cccc(Cl)c4)c3c2)cc1N(S(C)(=O)=O)S(C)(=O)=O	OVCAR-3 ovarian	54.9
COc1ccc2c(c1)C=CC(C#N)N2C(=O)c1ccccc1 (centres undefined)	OVCAR-3 ovarian	-23.7
